Listing of entries alongside the reported PanDDA run, TFA/DMSO background map: 1-BDC.
measurement target: SARS-CoV-2 NSP3 macrodomain (Mac1), P43 crystal form (Severe acute respiratory syndrome coronavirus 2, UniProt P0DTD1)
Type: binding
test settings: crystal soak 10 mM; TFA/DMSO background map
reported property: PanDDA run, TFA/DMSO background map: 1-BDC

>>> val("O=C(O)C(F)(F)F.OCC1(Nc2ncnc3[nH]ccc23)CCCC1")
0.11
>>> val("CC(c1ccccc1)C(CO)Nc1ncnc2[nH]ccc12 (stereo not drawn)")
0.09
>>> val("OCC(CC1CCC1)Nc1ncnc2[nH]ccc12 (stereo not drawn)")
0.11
>>> val("OCC(CC1CC1)Nc1ncnc2[nH]ccc12 (stereo not drawn)")
0.09
>>> val("O[C@H]1CC[C@@H]2CCN(c3ncnc4[nH]ccc34)[C@@H]21")
0.15
>>> val("CC(C)(C)CC(CO)Nc1ncnc2[nH]ccc12 (stereo not drawn)")
0.16

====

measurement target: SARS-CoV-2 NSP3 macrodomain (Mac1) (Severe acute respiratory syndrome coronavirus 2, UniProt P0DTD1)
assay explanation: biochemical
Assay type: binding
test settings: dose-response; read-out: SARS CoV-2 macrodomain HTRF assay: IC50
Just so you know, the groups by IC50 go like this: bottom bin: < 60 µM; middle bin: ≥ 60 µM and < 100 µM; top bin: ≥ 100 µM

>>> label("OC1(CNc2ncnc3[nH]ccc23)COC2CC1C2 (stereo not shown)")
"top bin"
>>> label("OC1(CNc2ncnc3[nH]ccc23)CCOCC1")
"top bin"
>>> label("OC[C@@H]1C[C@@H]2CCC[C@@H]2N1c1ncnc2[nH]ccc12")
"bottom bin"
>>> label("OC1(CNc2ncnc3[nH]ccc23)CCC(F)(F)CC1")
"top bin"
>>> label("C[C@H]1CC[C@H](CO)N(c2ncnc3[nH]ccc23)C1 (racemic)")
"bottom bin"
>>> label("O[C@H]1CC[C@H]2CCN(c3ncnc4[nH]ccc34)[C@H]21")
"bottom bin"
>>> label("Cc1c[nH]c2ncnc(NCC3(O)CCC(C)(C)CC3)c12")
"top bin"
>>> label("OCC1C=CCCN1c1ncnc2[nH]ccc12 (stereo not shown)")
"top bin"
>>> label("Cc1c[nH]c2ncnc(NCC3(O)CCC(C)CC3)c12 (stereo not shown)")
"top bin"
>>> label("OC1(CNc2ncnc3[nH]ccc23)CCCOC1 (stereo not shown)")
"top bin"
>>> label("OCC1CC=CCN1c1ncnc2[nH]ccc12 (stereo not shown)")
"bottom bin"
>>> label("OC1CCC(O)(CNc2ncnc3[nH]ccc23)CC1 (stereo not shown)")
"top bin"
>>> label("Cc1c[nH]c2ncnc(NCC3(O)CCSCC3)c12")
"bottom bin"
>>> label("CC1(C)CCC(O)(CNc2ncnc3[nH]ccc23)CC1")
"middle bin"
>>> label("OCC1CC2(CCCC2)CN1c1ncnc2[nH]ccc12 (stereo not shown)")
"bottom bin"
>>> label("O[C@H]1CC[C@@H]2CCN(c3ncnc4[nH]ccc34)[C@@H]21")
"bottom bin"
>>> label("OC1(CNc2ncnc3[nH]ccc23)CCCSC1 (stereo not shown)")
"bottom bin"
>>> label("CC(C)(O)C1C2CCCCC2CN1c1ncnc2[nH]ccc12 (stereo not shown)")
"top bin"
>>> label("OC1(CNc2ncnc3[nH]ccc23)CC2CCC1CC2 (stereo not shown)")
"middle bin"
>>> label("CC1(C)CCN(c2ncnc3[nH]ccc23)C(CO)C1 (stereo not shown)")
"middle bin"

====

measurement target: SARS-CoV-2 NSP3 macrodomain (Mac1) (Severe acute respiratory syndrome coronavirus 2)
assay explanation: biochemical
Assay type: binding
test settings: preliminary screen, compound at 200 μM, mean of 3-4 technical replicates; read-out: % competition in HTRF assay
Listing of entries alongside the reported inhibition at 200 µM.
reported property: inhibition at 200 µM (%)

>>> val("Cc1c(C)n(Cc2ccccc2)c2ncnc(N)c12")
19
>>> val("OCC(Cc1c[nH]c2ccccc12)Nc1ncnc2[nH]ccc12 (stereo not shown)")
71
>>> val("O=C(O)C(F)(F)F.OCC1(Nc2ncnc3[nH]ccc23)CC1")
72
>>> val("O=C(O)C1CCCN1S(=O)(=O)c1cccc2nsnc12 (stereo not shown)")
23
>>> val("OCC(CC1CCCC1)Nc1ncnc2[nH]ccc12 (stereo not shown)")
53
>>> val("OC[C@@H]1C[C@H](F)CN1c1ncnc2[nH]ccc12")
52
>>> val("CCC(Nc1ncnc2[nH]ccc12)C(C)(C)O (stereo not shown)")
51
>>> val("CCC(Nc1ncnc2[nH]ccc12)C(C)O (stereo not shown)")
54

====

Listing of entries alongside the reported inhibition at 200 µM.
measurement target: SARS-CoV-2 NSP3 macrodomain (Mac1) (Severe acute respiratory syndrome coronavirus 2)
assay explanation: biochemical
Assay type: binding
test settings: preliminary screen, compound at 200 μM, mean of 3-4 technical replicates; read-out: % competition in HTRF assay
reported property: inhibition at 200 µM

>>> val("Cc1ccc(CC(CO)Nc2ncnc3[nH]ccc23)cc1C (stereo not shown)")
"< 10%"
>>> val("OCC1(Nc2ncnc3[nH]ccc23)COC1")
"< 10%"
>>> val("OCC(Cc1ccc(I)cc1)Nc1ncnc2[nH]ccc12 (stereo not shown)")
"< 10%"
>>> val("CN(C)C[C@@]1(O)CCCN(c2ncnc3[nH]ccc23)C1")
"< 10%"
>>> val("OCC(CN1CCCCC1)Nc1ncnc2[nH]ccc12 (stereo not shown)")
"< 10%"
>>> val("OC[C@H]1CN2CCC[C@H]2CN1c1ncnc2[nH]ccc12")
"< 10%"
>>> val("CC1CCN(C(=O)c2ccc3c(c2)nc(CO)n3C)CC1C(=O)O (stereo not shown)")
"< 10%"
